Tested on: Human mast cells (CHMC)
Test: LD Tryptase release assay in CHMC (mast cell activation induced by FcγR cross-linking)
Format: cell-based
Conditions: Homo sapiens, Mast cell, anti-IgG stimulation, activity of tryptase released upon degranulation
Quantity measured: IC50

C[C@H]1COCCN1c1ccc(Nc2ncc(F)c(Nc3ccc4c(n3)NC(=O)C(C)(C)O4)n2)cc1; 100 to 500 nM
CC1(C)Oc2ccc(Nc3nc(Nc4ccc(N5C[C@@H]6C[C@H]5CO6)cc4)ncc3F)nc2NC1=O; < 100 nM

// lookup IC50 for O=C1COc2ccc(Nc3nc(Nc4ccc(N5CCO[C@H](CCO)C5)cc4)ncc3F)nc2N1 (stereo in doubt)
< 100 nM

Return reported IC50; argument: CC1(C)Oc2ccc(Nc3nc(Nc4ccc(N5CCSCC5)cc4)ncc3F)nc2NC1=O
1000 to 100000 nM

---

Tested on: Human mast cells (CHMC)
Assay: LD Tryptase release assay in CHMC (mast cell activation induced by FcγR cross-linking)
Format: cell-based
Conditions: Homo sapiens, Mast cell, anti-IgG stimulation, activity of tryptase released upon degranulation
pIC50: −log10 of the molar value.
pIC50 for assorted molecules

Please give the measured pIC50 for this molecule: CC1(C)CN(c2ccc(Nc3ncc(F)c(Nc4ccc5c(n4)NC(=O)C(C)(C)O5)n3)cn2)CCO1 [Compound 8]
6.30 to 7.00

I would be grateful if you could share the reported pIC50 for CC1(C)CN(c2ccc(Nc3ncc(F)c(Nc4ccc5c(n4)NC(=O)C4(CCC4)O5)n3)cc2)CCO1 [Compound 124] .
4.00 to 6.00

Would you kindly share the measured pIC50 for C[C@@H]1CN(c2ccc(Nc3ncc(F)c(Nc4ccc5c(n4)NC(=O)CO5)n3)cc2)C[C@H](C)O1 [Compound 35] ?
6.30 to 7.00

Param item = CCOC[C@@H]1CN(c2ccc(Nc3ncc(F)c(Nc4ccc5c(n4)NC(=O)CO5)n3)cn2)CCO1 [Compound 100] ; retrieve measured pIC50.
6.30 to 7.00

Request the reported pIC50 associated with CC1(C)Oc2ccc(Nc3nc(Nc4ccc(NC5CCOCC5)nc4)ncc3F)nc2NC1=O [Compound 134]
> 7.00

Find the recorded pIC50 belonging to O=C1COc2ccc(Nc3nc(Nc4ccc(N5C[C@@H]6C[C@H]5CO6)cc4)ncc3F)nc2N1 [Compound 37] and report it.
6.30 to 7.00

So what does the record say about pIC50 for CC(C)[C@@H]1COC(=O)N1c1ccc(Nc2ncc(F)c(Nc3ccc4c(n3)NC(=O)C(C)(C)O4)n2)cn1 [Compound 73] ?
6.30 to 7.00

Name the reported pIC50 value associated with the molecule CCN(CC)C1CCN(c2ccc(Nc3ncc(F)c(Nc4ccc5c(n4)NC(=O)C(C)(C)O5)n3)cn2)CC1 [Compound 61]
6.30 to 7.00

---

Reported IC50 by item:
Tested on: Human mast cells (CHMC)
Experiment: LD Tryptase release assay in CHMC (mast cell activation induced by FcγR cross-linking)
Assay type: cell-based
Conditions: Homo sapiens, Mast cell, anti-IgG stimulation, activity of tryptase released upon degranulation

Consider the reported IC50 for these molecules:
CC1(C)Oc2ccc(Nc3nc(Nc4ccc(N5CCS(=O)(=O)CC5)cc4)ncc3F)nc2NC1=O; < 100 nM
CC1(C)Oc2ccc(Nc3nc(Nc4ccc(N5CC[C@H](CO)C5)nc4)ncc3F)nc2NC1=O; 100 to 500 nM
CCN[C@@H]1CCN(c2ccc(Nc3ncc(F)c(Nc4ccc5c(n4)NC(=O)C(C)(C)O5)n3)cn2)C1; 100 to 500 nM
CC1(C)Oc2ccc(Nc3nc(Nc4ccc(N5CCCOCC5)cc4)ncc3F)nc2NC1=O; 100 to 500 nM
CCOCC1CN(c2ccc(Nc3ncc(F)c(Nc4ccc5c(n4)NC(=O)C(C)(C)O5)n3)cc2)CCO1 (stereo in doubt); 100 to 500 nM
C[C@H]1CN(c2ccc(Nc3ncc(F)c(Nc4ccc5c(n4)NC(=O)CO5)n3)cn2)CCO1; 100 to 500 nM

Name the recorded IC50 for CC1(C)Oc2ccc(Nc3nc(Nc4ccc(N5CCOCC5)cc4)ncc3F)nc2NC1=O .
< 100 nM

Look at this molecule and give its reported IC50. C[C@@H]1CN(c2ccc(Nc3ncc(F)c(Nc4ccc5c(n4)NC(=O)C(C)(C)O5)n3)cn2)CCO1
100 to 500 nM

IC50 lookup needed for Cc1cc(Nc2ncc(F)c(Nc3ccc4c(n3)NC(=O)CO4)n2)ccc1N1CCOCC1 , thanks.
< 100 nM

Look up IC50: CC1(C)Oc2ccc(Nc3nc(Nc4ccc(N5CCOCC5CO)c(F)c4)ncc3F)nc2NC1=O (stereo not drawn)
100 to 500 nM
